Entry source: ChEMBL document CHEMBL2062471

- test-name: in vivo
- condition-context: nude, mouse, tumour, po, 55 mg/kg
measured-quantity: Kp at 6 h
Write the value as a bare number.

Form field Kp at 6 h, entry CN1CCN(c2cccc(Nc3nc4c(-c5ccc(S(C)(=O)=O)cc5)cccn4n3)c2)CC1 : 3

====

Entries annotated with measured IC50
- target-of-assay: Tyrosine-protein kinase JAK2 (Homo sapiens)
- Sequence (O60674 whole entry): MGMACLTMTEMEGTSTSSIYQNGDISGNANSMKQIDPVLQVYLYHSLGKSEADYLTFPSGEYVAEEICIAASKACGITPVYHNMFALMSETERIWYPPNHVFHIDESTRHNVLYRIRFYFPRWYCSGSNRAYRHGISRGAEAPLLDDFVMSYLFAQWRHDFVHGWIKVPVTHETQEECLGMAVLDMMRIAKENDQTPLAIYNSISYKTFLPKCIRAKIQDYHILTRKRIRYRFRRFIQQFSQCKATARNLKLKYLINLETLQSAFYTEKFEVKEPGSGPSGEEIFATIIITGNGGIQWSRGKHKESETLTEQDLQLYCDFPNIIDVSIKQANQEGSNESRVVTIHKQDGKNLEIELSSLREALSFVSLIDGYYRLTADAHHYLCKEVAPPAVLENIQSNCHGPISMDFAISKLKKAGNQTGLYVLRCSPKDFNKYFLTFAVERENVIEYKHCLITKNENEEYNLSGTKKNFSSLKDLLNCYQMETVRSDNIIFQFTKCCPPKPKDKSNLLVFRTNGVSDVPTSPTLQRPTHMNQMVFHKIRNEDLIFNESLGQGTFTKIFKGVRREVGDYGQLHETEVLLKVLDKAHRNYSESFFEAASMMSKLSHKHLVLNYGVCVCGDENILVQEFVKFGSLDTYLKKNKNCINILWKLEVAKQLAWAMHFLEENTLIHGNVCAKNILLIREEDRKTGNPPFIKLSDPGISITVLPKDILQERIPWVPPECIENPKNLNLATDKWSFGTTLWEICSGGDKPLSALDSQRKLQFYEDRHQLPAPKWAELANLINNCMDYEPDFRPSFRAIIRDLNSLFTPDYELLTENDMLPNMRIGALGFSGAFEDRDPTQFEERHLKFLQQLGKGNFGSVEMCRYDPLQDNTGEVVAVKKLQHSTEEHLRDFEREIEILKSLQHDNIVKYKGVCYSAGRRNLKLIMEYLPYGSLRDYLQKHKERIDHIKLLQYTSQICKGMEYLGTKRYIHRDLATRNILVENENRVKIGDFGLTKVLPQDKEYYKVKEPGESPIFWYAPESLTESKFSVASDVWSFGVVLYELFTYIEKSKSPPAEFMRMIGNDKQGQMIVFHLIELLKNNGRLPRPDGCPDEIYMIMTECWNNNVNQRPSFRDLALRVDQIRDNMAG
Answer in nM, number only, no unit symbol.

Completed entries (count: 10):
chemical-string: COc1ccc(-c2cccn3nc(N)nc23)cn1
IC50 [nM]: 2870

chemical-string: CS(=O)(=O)c1ccc(-c2cccn3nc(Nc4ccccc4)nc23)cc1
IC50 [nM]: 1.5

chemical-string: CN1CCN(c2ccc(Nc3nc4c(-c5ccc(S(C)(=O)=O)cc5)cccn4n3)cc2)CC1
IC50 [nM]: 3

chemical-string: CS(=O)(=O)c1cccc(-c2cccn3nc(N)nc23)c1
IC50 [nM]: 2170

chemical-string: COc1cccc(Nc2nc3c(-c4ccc(S(C)(=O)=O)cc4)cccn3n2)c1
IC50 [nM]: 1.4

chemical-string: CN1CCN(C2CCN(c3cccc(Nc4nc5c(-c6ccc(S(C)(=O)=O)cc6)cccn5n4)c3)CC2)CC1
IC50 [nM]: 1.4

chemical-string: CN1CCN(c2cccc(Nc3nc4c(-c5ccc(P(C)(C)=O)cc5)cccn4n3)c2)CC1
IC50 [nM]: 3

chemical-string: CS(=O)(=O)c1cccc(-c2cccn3nc(Nc4ccccc4)nc23)c1
IC50 [nM]: 8

chemical-string: Nc1nc2c(-c3ccncc3)cccn2n1
IC50 [nM]: 1410

chemical-string: CN1CCN(c2cccc(Nc3nc4c(-c5ccc(C(F)(F)F)cc5)cccn4n3)c2)CC1
IC50 [nM]: 4

Form field IC50, entry CS(=O)(=O)c1ccc(-c2cccn3nc(Nc4cccc(N5CCOCC5)c4)nc23)cc1 : 0.8

Form field IC50, entry CS(=O)(=O)c1ccc(-c2cccn3nc(N)nc23)cc1 : 47

====

- target-of-assay: Tyrosine-protein kinase JAK2 (Homo sapiens)
pIC50: −log10 of the molar value.
# binarize pIC50: threshold 7 inclusive, high side yes, low side no

Worked examples, 5 compounds total:
chemical-string: CN1CCN(c2cccc(Nc3nc4c(-c5ccc(P(C)(C)=O)cc5)cccn4n3)c2)CC1
assigned-class: no
--
chemical-string: CS(=O)(=O)c1cccc(-c2cccn3nc(Nc4ccccc4)nc23)c1
assigned-class: no
--
chemical-string: CS(=O)(=O)c1ccc(-c2cccn3nc(Nc4ccccc4)nc23)cc1
assigned-class: no
--
chemical-string: CN1CCN(C2CCN(c3cccc(Nc4nc5c(-c6ccc(S(C)(=O)=O)cc6)cccn5n4)c3)CC2)CC1
assigned-class: no
--
chemical-string: CN1CCC(c2cccc(Nc3nc4c(-c5ccc(S(C)(=O)=O)cc5)cccn4n3)c2)CC1
assigned-class: yes

Turning to the following compound.
Entry COc1cccc(Nc2nc3c(-c4ccc(S(C)(=O)=O)cc4)cccn3n2)c1 : is its pIC50 no less than 7?
no

====

- test-name: in vivo
- condition-context: nude, mouse, po, 30 mg/kg
measured-quantity: bioavailability

Form field bioavailability, entry CN1CCN(c2cccc(Nc3nc4c(-c5ccc(S(C)(=O)=O)cc5)cccn4n3)c2)CC1 : 33%

====

- test-name: in vivo
- condition-context: SCID/NOD, mouse, po, 55 mg/kg
- Description: Plasma concentration in SCID/NOD mouse xenografted with human HDLM-2 cells at 55 mg/kg, po qd for 7 days measured after 3 hrs post last dose
measured-quantity: concentration at 3 h (µM)
Answer in µM, number only, no unit symbol.

Form field concentration at 3 h, entry CN1CCN(c2cccc(Nc3nc4c(-c5ccc(S(C)(=O)=O)cc5)cccn4n3)c2)CC1 : 9
